What solubility was measured for each of the following?
test: Water solubility; type: physicochemical; conditions: water; read-out: H2O Sol. % (g per 100 ml H2O)
Numbers only, in µg/mL.

Worked examples, 7 molecules total:
Molecule	Val
O=C1C2C3C=CC(C2C(=O)N1CN1CCSCC1)C1C2C(=O)N(CN4CCSCC4)C(=O)C2C31 (centres unmarked)	1000
O=C1C2C3C=CC(C2C(=O)N1CN1CCOCC1)C1C2C(=O)N(CN4CCOCC4)C(=O)C2C31 (centres unmarked)	1000
CC(=O)OC(C(=O)O)N1C(=O)C2C3C=CC(C2C1=O)C1C2C(=O)N(C(OC(C)=O)C(=O)O)C(=O)C2C31 (centres unmarked)	50000
NCC(=O)OCN1C(=O)C2C3C=CC(C2C1=O)C1C2C(=O)N(COC(=O)CN)C(=O)C2C31 (centres unmarked)	20000
O=C1C2C3C=CC(C2C(=O)N1CO)C1C2C(=O)N(CO)C(=O)C2C31 (centres unmarked)	8000
CC(=O)OCN1C(=O)C2C3C=CC(C2C1=O)C1C2C(=O)N(COC(C)=O)C(=O)C2C31 (centres unmarked)	1000
CCN(CC)CN1C(=O)C2C3C=CC(C2C1=O)C1C2C(=O)N(CN(CC)CC)C(=O)C2C31 (centres unmarked)	1000

# input Return reported solubility; argument: O=C(O)CCC(=O)OCN1C(=O)C2C3C=CC(C2C1=O)C1C2C(=O)N(COC(=O)CCC(=O)O)C(=O)C2C31 (centres unmarked)
# output 20000
